Test system: MDA-MB-468 breast
Experiment: NCI tumour cell line growth inhibition, 48 h
Think of 8 µM as a floor: if TGI stands on it or above, it is y; beneath it, n.

[
  {
    "compound": "COc1ccc(C2=C(c3cn(C)c4ccccc34)C(=O)OC2)cc1OC",
    "target_or_test_system": "MDA-MB-468 breast",
    "assigned_class": "y"
  },
  {
    "compound": "Cc1ccc2cc3c(cc(C)c4ccccc43)c3c2c1CC3",
    "target_or_test_system": "MDA-MB-468 breast",
    "assigned_class": "y"
  },
  {
    "compound": "COc1ccc2c(c1)O/C(=C\\c1ncc([N+](=O)[O-])n1C)C2=O",
    "target_or_test_system": "MDA-MB-468 breast",
    "assigned_class": "n"
  },
  {
    "compound": "NC(=O)c1c(Br)n(C2OC(CO)C(O)C2O)c2ncnc(N)c12 (stereo not given)",
    "target_or_test_system": "MDA-MB-468 breast",
    "assigned_class": "n"
  },
  {
    "compound": "N#C/C(=C1C=C/C(=N/O)C(Cl)=C/1)c1ccc(Cl)cc1",
    "target_or_test_system": "MDA-MB-468 breast",
    "assigned_class": "y"
  },
  {
    "compound": "CN1C[C@@H](c2ccc(Cl)cc2)[C@]2(NC(=S)N(c3ccc(F)c(Cl)c3)C2=O)[C@@]12C(=O)NC1C=CC(Cl)=C[C@H]12 (stereo not given in full)",
    "target_or_test_system": "MDA-MB-468 breast",
    "assigned_class": "y"
  },
  {
    "compound": "COc1cccc(/C=C2\\COc3ccc(O)c(O)c3C2=O)c1",
    "target_or_test_system": "MDA-MB-468 breast",
    "assigned_class": "n"
  },
  {
    "compound": "Cc1ccc(-c2nc3nc(-c4ccc(Br)cc4)nc(N4CCCNCC4)c3o2)cc1",
    "target_or_test_system": "MDA-MB-468 breast",
    "assigned_class": "y"
  },
  {
    "compound": "O=S(=O)(Nc1ccc(Cl)c(F)c1)c1ccc(-c2cnc(C3CC3)o2)cc1",
    "target_or_test_system": "MDA-MB-468 breast",
    "assigned_class": "n"
  }
]
